Target: Ylr278c (UniProt Q05854)
Sequence (Q05854 whole entry): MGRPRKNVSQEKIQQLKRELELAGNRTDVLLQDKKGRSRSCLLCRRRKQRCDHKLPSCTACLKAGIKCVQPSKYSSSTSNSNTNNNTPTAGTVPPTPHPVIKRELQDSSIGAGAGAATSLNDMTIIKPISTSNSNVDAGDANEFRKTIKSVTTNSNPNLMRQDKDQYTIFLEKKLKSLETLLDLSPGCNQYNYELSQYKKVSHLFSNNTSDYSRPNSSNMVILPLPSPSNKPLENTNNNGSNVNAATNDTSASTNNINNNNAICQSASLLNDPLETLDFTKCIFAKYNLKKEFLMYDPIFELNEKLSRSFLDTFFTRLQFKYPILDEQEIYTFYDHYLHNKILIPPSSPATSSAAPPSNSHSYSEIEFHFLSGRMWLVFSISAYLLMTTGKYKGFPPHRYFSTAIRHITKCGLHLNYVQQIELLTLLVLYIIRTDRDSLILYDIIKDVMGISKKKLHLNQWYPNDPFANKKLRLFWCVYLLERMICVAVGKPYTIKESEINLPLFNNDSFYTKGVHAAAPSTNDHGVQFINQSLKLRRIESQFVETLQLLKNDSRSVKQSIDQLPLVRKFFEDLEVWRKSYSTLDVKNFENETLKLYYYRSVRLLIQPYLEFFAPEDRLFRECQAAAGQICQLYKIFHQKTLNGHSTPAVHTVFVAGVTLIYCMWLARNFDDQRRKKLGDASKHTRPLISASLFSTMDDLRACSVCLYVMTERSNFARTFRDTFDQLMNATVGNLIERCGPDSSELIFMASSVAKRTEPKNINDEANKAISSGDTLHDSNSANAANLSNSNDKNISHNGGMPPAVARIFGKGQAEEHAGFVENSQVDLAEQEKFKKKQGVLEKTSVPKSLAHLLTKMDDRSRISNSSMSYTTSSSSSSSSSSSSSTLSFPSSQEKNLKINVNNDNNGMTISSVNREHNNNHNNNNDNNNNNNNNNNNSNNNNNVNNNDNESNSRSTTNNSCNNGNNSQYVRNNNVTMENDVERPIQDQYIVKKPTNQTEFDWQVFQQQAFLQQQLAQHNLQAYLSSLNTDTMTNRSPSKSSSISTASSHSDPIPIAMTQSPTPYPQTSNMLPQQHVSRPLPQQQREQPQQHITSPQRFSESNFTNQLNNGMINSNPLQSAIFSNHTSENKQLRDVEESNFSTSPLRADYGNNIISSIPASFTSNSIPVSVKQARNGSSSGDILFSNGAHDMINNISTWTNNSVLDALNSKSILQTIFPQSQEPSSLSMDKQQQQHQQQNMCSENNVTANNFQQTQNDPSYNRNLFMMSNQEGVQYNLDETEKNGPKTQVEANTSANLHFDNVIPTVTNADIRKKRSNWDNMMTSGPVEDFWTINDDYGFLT
Assay: PBM E-score (8-mer binding enrichment) (E-score (-0.5 to 0.5)); higher = stronger / more preferred TF binding
Conditions: protein concentration: 200 nM; construct: GST-DNA-binding domain
The full ranking holds about 33,000 sequences; the median of “E-score (-0.5 to 0.5)” is about -0.054, and the highest 2% start at about 0.39. The full list was thinned out, with the highest values kept by preference.
Note to self: values exactly at 0.2 are yes. So PBM E-score at or above 0.2 is yes, below is no.

Solved entries (count: 5):
sequence	assigned_class
GGACTTAC	yes
GACTAAAC	no
CCAGTCCA	no
GCCGGAAC	yes
CCCGGAAC	yes

--- query ---
Determine whether measured PBM E-score meets or exceeds 0.2 for TCCGGAAA
yes

* * *

Target: Ylr278c (UniProt Q05854)
Assay: PBM E-score (8-mer binding enrichment) (E-score (-0.5 to 0.5)); higher = stronger / more preferred TF binding
Conditions: protein concentration: 200 nM; construct: GST-DNA-binding domain
Whole data set: some 33,000 sequences, median “E-score (-0.5 to 0.5)” near -0.054, cut for the highest 2% near 0.39. What follows is part of a selection rich in the highest values, with near analogues and random picks from the rest.
Note to self: values exactly at 0.05 are Condition met. So PBM E-score at or above 0.05 is Condition met, below is Condition not met.

sequence	assigned_class
ATATTCCG	Condition met
CGATTCCA	Condition met
AAATTCCA	Condition met
AAATTCCG	Condition met
CGATTCCC	Condition met

Determine whether measured PBM E-score meets or exceeds 0.05 for ATATTCCA
Condition not met

* * *

Target: Ylr278c (UniProt Q05854)
Experiment: PBM E-score (8-mer binding enrichment) (E-score (-0.5 to 0.5)); higher = stronger / more preferred TF binding
Conditions: protein concentration: 200 nM; construct: GST-DNA-binding domain
In all, about 33,000 sequences were measured (“E-score (-0.5 to 0.5)”: median about -0.054, highest 2% from about 0.39 on). The entries come from a sample that favours the highest values as a whole.
# reported PBM E-score; entries follow
Write the number on its own, no unit after it.

Worked examples, 8 sequences total:
sequence	PBM E-score
AGCGTCTC	0.0181
CTGAGGAC	0.0445
ACATCCGT	0.162
CTCCGGAG	0.481
CCCAGAGA	-0.233
ATAGTGTA	-0.188
AGAAGACC	0.0375
GCGGCGCC	0.289

# input for lookup
Using the record for TTCGGAAA , state its measured PBM E-score.
0.419

* * *

Target: Ylr278c (UniProt Q05854)
Assay: PBM E-score (8-mer binding enrichment) (E-score (-0.5 to 0.5)); higher = stronger / more preferred TF binding
Details: protein concentration: 200 nM; construct: GST-DNA-binding domain
In all, about 33,000 sequences were measured (“E-score (-0.5 to 0.5)”: median about -0.054, highest 2% from about 0.39 on). This is one part of a sample in which the highest values are shown more often than they occur.
measured_parameter: PBM E-score
Write the number on its own, no unit after it.

Worked examples, 5 sequences total:
sequence	PBM E-score
GGAGCAGA	0.109
CGCGCGGA	0.398
GAAGCTAC	-0.144
GCCGCGCA	0.21
ACCGCGGT	0.178

Determine reported PBM E-score for CATTCAAG ; test system: Ylr278c (UniProt Q05854).
-0.154

Determine reported PBM E-score for GCCGCGGA ; test system: Ylr278c (UniProt Q05854).
0.409

Determine reported PBM E-score for GGGGGCCA ; test system: Ylr278c (UniProt Q05854).
-0.0264

Sourced from the supplement of paper PMC3334620
